These entries and their values trace back to ChEMBL document CHEMBL4689842.

# Test system: HEK-293T
# assayMethodText: Multiplex assay against HEK293T
# Format: toxicity, cell-based
# conditionNotes: human, 48 h, 1 µM, compound concentration 1 uM, replicate 1
Assign t to entries whose Population Mitotic Cells (%) meets or exceeds 60%; assign f to the rest.

| compound | answerLabel |
| --- | --- |
| C[C@]12CC[C@@H]3c4ccc(O)cc4CC[C@H]3[C@@H]1CC[C@@H]2O [ESTRADIOL] | f |
| Cc1cccc(CN2CCN(C(c3ccccc3)c3ccc(Cl)cc3)CC2)c1.Cl.Cl (stereo not given) | f |
| Cc1ccccc1C(c1ccccc1C)N1C2CCC1CC(O)(c1ccccc1)C2 (stereo not given) | t |
| CC(C)Oc1ccccc1C(=O)Nc1ccccc1C(=O)Nc1cccc(S(=O)(=O)C(F)(F)F)c1 | f |
| CC(C)(C)NC[C@H](O)COc1nsnc1N1CCOCC1 [TIMOLOL] | f |

---

Overview of recorded Population Normal (%) for various compounds
# System: U2OS
# assayMethodText: Multiplex assay against U2OS
# Format: toxicity, cell-based
# conditionNotes: human, 12 h, 10 µM, compound concentration 10 uM, replicate 2
metric: Population Normal (%)

| compound | resultUnit | resultNumber |
| --- | --- | --- |
| Cc1ccc(C)c(Oc2ccncc2C(=O)N2CCN(C3CC3)c3ccccc32)c1 | % | 96 |
| COc1ccccc1CN[C@H]1C2CCN(CC2)[C@H]1C(c1ccccc1)c1ccccc1 | % | 96 |
| C=CC(=O)Nc1cccc(Oc2nc(Nc3ccc(N4CCN(C)CC4)cc3OC)ncc2Cl)c1 | % | 86 |
| CNC(=O)Nc1ccc(-c2nc(N3CC4CCC(C3)O4)c3cnn(C4CCC5(CC4)OCCO5)c3n2)cc1 | % | 93 |
| O=c1cc(N2CCOCC2)oc2c(-c3cccc4c3sc3ccccc34)cccc12 | % | 83 |
| COc1cc2ncn(-c3cc(OCc4ccccc4C(F)(F)F)c(C(N)=O)s3)c2cc1OC [GW843682X] | % | 93 |
| CC(C)(C)NC[C@H](O)COc1nsnc1N1CCOCC1 | % | 96 |
| CC(C)NC(=O)N1CC[C@H](NC2=Nc3cc(F)ccc3N(CC(F)F)c3ccc(Cl)cc32)C1 | % | 86 |
| C[C@]12CC[C@@H]3c4ccc(O)cc4CC[C@H]3[C@@H]1CC[C@@H]2O | % | 91 |
| O=C(c1cc2c(cc1F)OC(c1ccc(F)cc1)(c1ccc(Cl)cc1Cl)O2)N1CCOCC1 (stereo not given) | % | 95 |

---

# Test system: U2OS
# assayMethodText: Multiplex assay against U2OS
# Type: toxicity, cell-based
# conditionNotes: human, 24 h, 10 µM, compound concentration 10 uM, replicate 2
metric: Population Mitochondria Different-Phenotype (%)

| compound | resultUnit | resultNumber |
| --- | --- | --- |
| Cl.O=C(O)c1cc(-c2ccc(C3CCNCC3)cc2)c2ccc(-c3ccc(C(F)(F)F)cc3)cc2c1 | % | 5 |
| CCc1nn(CCCN2CCN(c3cccc(Cl)c3)CC2)c(=O)n1CCOc1ccccc1.Cl [NEFAZODONE HYDROCHLORIDE] | % | 100 |
| CC(C)CC(=O)Nc1[nH]nc2c1CN(C(=O)C1CCN(C)CC1)C2(C)C [PHA-793887] | % | 36 |
| CC(C)Oc1ccccc1C(=O)Nc1ccccc1C(=O)Nc1cccc(S(=O)(=O)C(F)(F)F)c1 | % | 94 |
| O=c1cc(N2CCOCC2)oc2c(-c3cccc4c3sc3ccccc34)cccc12 | % | 70 |
